As shown below, each of these compounds has a reported CL value.
# Tested on: Liver microsomes
# Test Name: Intrinsic clearance in rat liver microsome
# Type: ADME

Some entries whose results are on file:
                            chemical_smiles            target         reading
0  O=C1O[C@]2(CC[C@H](CNc3cnn(-c4ccccc4F)c3)CC2)CN1c1cccnn1  Liver microsomes  < 0.5 mL/min/g
1  O=C1O[C@]2(CC[C@H](CNc3nc(-c4ccccn4)cs3)CC2)CN1c1ccccn1  Liver microsomes    3.1 mL/min/g
2  O=C1O[C@]2(CC[C@H](CNc3ccc(-c4cc(F)cc(F)c4)nn3)CC2)CN1c1cccnn1  Liver microsomes  < 0.5 mL/min/g

# context switch: different compound, same CL
Fill blank: measured CL of the compound "O=C1O[C@]2(CC[C@H](CNc3ccc(-c4ccccc4F)nn3)CC2)CN1c1cccnn1" is ____.
< 0.5 mL/min/g

---

# Target: Neuropeptide Y receptor type 5 (Homo sapiens, UniProt Q15761)
# Sequence (Q15761 whole entry): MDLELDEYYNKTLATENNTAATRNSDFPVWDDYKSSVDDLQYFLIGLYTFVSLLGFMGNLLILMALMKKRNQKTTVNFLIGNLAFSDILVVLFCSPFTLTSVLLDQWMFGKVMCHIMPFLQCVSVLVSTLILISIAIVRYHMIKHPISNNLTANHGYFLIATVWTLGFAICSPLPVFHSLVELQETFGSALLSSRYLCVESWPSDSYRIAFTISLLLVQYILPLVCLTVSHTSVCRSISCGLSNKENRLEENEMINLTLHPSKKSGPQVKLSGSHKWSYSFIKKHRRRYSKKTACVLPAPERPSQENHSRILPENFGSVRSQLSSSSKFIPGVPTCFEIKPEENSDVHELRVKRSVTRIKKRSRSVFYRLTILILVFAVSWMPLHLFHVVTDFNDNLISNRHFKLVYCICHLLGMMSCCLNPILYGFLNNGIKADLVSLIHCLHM
# Test Name: Antagonist activity at human NPY Y5 receptor
pKi: −log10 of the molar value.
Measured Metric: pKi

                            chemical_smiles                                    target  reading
0  O=C1O[C@]2(CC[C@H](CNc3ccc(-c4ccccc4F)nc3)CC2)CN1c1ccccn1  Neuropeptide Y receptor type 5 (Homo sapiens, UniProt Q15761)     8.30

(1) O=C1O[C@]2(CC[C@H](CNc3cnn(-c4ccccc4F)c3)CC2)CN1c1cncnc1
(2) Cc1cccc(-c2ccc(NC[C@H]3CC[C@]4(CC3)CN(c3cccnn3)C(=O)O4)nc2)n1
(3) O=C1O[C@]2(CC[C@H](CNc3ccc(-c4ncccn4)cn3)CC2)CN1c1cccnn1
(4) O=C1O[C@]2(CC[C@H](CNc3nc(-c4ccccn4)cs3)CC2)CN1c1ccccn1
// sort entries: pKi, high to low Labels, requested order.
1, 4, 2, 3
(1: 10.40, 4: 10.10, 2: 9.60, 3: 8.80)

---

# Test Name: Ratio of drug uptake from blood to brain in rat
# Type: ADME, tissue-based
# Cond: brain and blood
Measured Metric: Kp

In [3]: df
Out[3]:
                            chemical_smiles  reading
0  O=C1O[C@]2(CC[C@H](CNc3nc(-c4ccccn4)cs3)CC2)CN1c1ccccn1      0.7

(P) O=C1O[C@]2(CC[C@H](CNc3ccc(-c4ccccc4F)nn3)CC2)CN1c1cccnn1
(Q) O=C1O[C@]2(CC[C@H](CNc3ccc(-c4ncccc4F)cn3)CC2)CN1c1cccnn1
(R) O=C1O[C@]2(CC[C@H](CNc3ccc(-c4cc(F)cc(F)c4)nn3)CC2)CN1c1cccnn1
(S) O=C1O[C@]2(CC[C@H](CNc3cnn(-c4ccccc4F)c3)CC2)CN1c1cccnn1
Ascending sort, Kp. API: response body holds the labels in the requested order.
P, Q, S, R

---

# Test Name: Protein binding in rat brain assessed as unbound fraction
# Format: ADME, tissue-based
# Cond: brain tissue
Measured Metric: fraction unbound

Use these answered entries as a reference point.
>>> print(df.to_string())
                            chemical_smiles  reading
0  O=C1O[C@]2(CC[C@H](CNc3cnn(-c4ccccc4F)c3)CC2)CN1c1ccnnc1    0.044
1  O=C1O[C@]2(CC[C@H](CNc3ccc(C(F)(F)F)cn3)CC2)CN1c1ccccn1    0.005
2  O=C1O[C@]2(CC[C@H](CNc3ccc(-c4ncccc4F)cn3)CC2)CN1c1cccnn1    0.052
3  O=C1O[C@]2(CC[C@H](CNc3cnn(-c4ccccc4F)c3)CC2)CN1c1cnccn1    0.017
4  O=C1O[C@]2(CC[C@H](CNc3nc(-c4ccccn4)cs3)CC2)CN1c1ccccn1     0.01
5  O=C1O[C@]2(CC[C@H](CNc3cnn(-c4ccccc4F)c3)CC2)CN1c1cccnc1F    0.019
6  Cc1cccc(-c2ccc(NC[C@H]3CC[C@]4(CC3)CN(c3cccnn3)C(=O)O4)nc2)n1    0.056
7  O=C1O[C@]2(CC[C@H](CNc3cnn(-c4ccccc4F)c3)CC2)CN1c1cccnc1    0.025
8  O=C1O[C@]2(CC[C@H](CNc3ccc(-c4ccccc4F)nn3)CC2)CN1c1cccnn1    0.046
9  O=C1O[C@]2(CC[C@H](CNc3cnn(-c4ccccc4F)c3)CC2)CN1c1cccnn1    0.031

(A) O=C1O[C@]2(CC[C@H](CNc3ccc(-c4ncccn4)cn3)CC2)CN1c1ccccn1
(B) O=C1O[C@]2(CC[C@H](CNc3ccc(-c4cc(F)cc(F)c4)nn3)CC2)CN1c1cccnn1
(C) O=C1O[C@]2(CC[C@H](CNc3cnc(-c4ccccc4F)cn3)CC2)CN1c1ccccn1
(D) Cc1ccccc1-c1ccc(NC[C@H]2CC[C@]3(CC2)CN(c2cccnn2)C(=O)O3)nn1
Order by fraction unbound, ascending. Put the labels in the requested order and write them down.
C, B, A, D
(C: 0.002, B: 0.016, A: 0.035, D: 0.051)

---

# Target: Cytochrome P450 2C19 (Homo sapiens, UniProt P33261)
# Sequence (P33261 whole entry): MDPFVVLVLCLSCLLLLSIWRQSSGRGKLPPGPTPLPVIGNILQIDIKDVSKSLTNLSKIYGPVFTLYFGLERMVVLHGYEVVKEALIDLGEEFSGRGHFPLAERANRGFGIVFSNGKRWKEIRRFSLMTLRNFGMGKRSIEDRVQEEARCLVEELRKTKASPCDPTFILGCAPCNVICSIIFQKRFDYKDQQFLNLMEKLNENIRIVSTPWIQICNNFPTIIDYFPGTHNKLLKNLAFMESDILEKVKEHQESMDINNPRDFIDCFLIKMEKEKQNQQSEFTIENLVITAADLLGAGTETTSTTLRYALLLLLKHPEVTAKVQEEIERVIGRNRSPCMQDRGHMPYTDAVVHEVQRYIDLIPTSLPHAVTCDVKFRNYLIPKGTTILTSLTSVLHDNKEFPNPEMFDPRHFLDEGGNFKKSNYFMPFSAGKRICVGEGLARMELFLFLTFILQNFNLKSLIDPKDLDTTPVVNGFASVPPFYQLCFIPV
# Test Name: Inhibition of CYP2C19
# Assay type: ADME
Measured Metric: INH (µM)

In [3]: df
Out[3]:
                            chemical_smiles                                    target  measured_metric  unit_of_measurement  reading
0  O=C1O[C@]2(CC[C@H](CNc3ccc(-c4ccccc4F)nn3)CC2)CN1c1ccccn1  Cytochrome P450 2C19 (Homo sapiens, UniProt P33261)              INH                   µM        2
1  O=C1O[C@]2(CC[C@H](CNc3ccc(OC4CCC4)cn3)CC2)CN1c1ccccn1  Cytochrome P450 2C19 (Homo sapiens, UniProt P33261)              INH                   µM        7
2  O=C1O[C@]2(CC[C@H](CNc3cnn(-c4ccccc4F)c3)CC2)CN1c1cccnc1  Cytochrome P450 2C19 (Homo sapiens, UniProt P33261)              INH                   µM        8
3  O=C1O[C@]2(CC[C@H](CNc3ncc(-c4ccccc4F)cn3)CC2)CN1c1ccccn1  Cytochrome P450 2C19 (Homo sapiens, UniProt P33261)              INH                   µM        4
4  O=C1O[C@]2(CC[C@H](CNc3cnc(-c4ccccc4F)cn3)CC2)CN1c1ccccn1  Cytochrome P450 2C19 (Homo sapiens, UniProt P33261)              INH                   µM        2

(P) O=C1O[C@]2(CC[C@H](CNc3ccc(-c4ncccn4)cn3)CC2)CN1c1ccccn1
(Q) O=C1O[C@]2(CC[C@H](CNc3ccc(C(F)(F)F)cn3)CC2)CN1c1ccccn1
(R) O=C1O[C@]2(CC[C@H](CNc3cnn(-c4ccccc4F)c3)CC2)CN1c1cnccn1
(S) O=C1O[C@]2(CC[C@H](CNc3nc(-c4ccccn4)cs3)CC2)CN1c1ccccn1
Please give the order of these compounds when sorted by INH, largest value leading. Please respond with the labels ordered as the question requires.
P, Q, S, R

---

# Target: Cytochrome P450 2C9 (Homo sapiens, UniProt P11712)
# Sequence (P11712 whole entry): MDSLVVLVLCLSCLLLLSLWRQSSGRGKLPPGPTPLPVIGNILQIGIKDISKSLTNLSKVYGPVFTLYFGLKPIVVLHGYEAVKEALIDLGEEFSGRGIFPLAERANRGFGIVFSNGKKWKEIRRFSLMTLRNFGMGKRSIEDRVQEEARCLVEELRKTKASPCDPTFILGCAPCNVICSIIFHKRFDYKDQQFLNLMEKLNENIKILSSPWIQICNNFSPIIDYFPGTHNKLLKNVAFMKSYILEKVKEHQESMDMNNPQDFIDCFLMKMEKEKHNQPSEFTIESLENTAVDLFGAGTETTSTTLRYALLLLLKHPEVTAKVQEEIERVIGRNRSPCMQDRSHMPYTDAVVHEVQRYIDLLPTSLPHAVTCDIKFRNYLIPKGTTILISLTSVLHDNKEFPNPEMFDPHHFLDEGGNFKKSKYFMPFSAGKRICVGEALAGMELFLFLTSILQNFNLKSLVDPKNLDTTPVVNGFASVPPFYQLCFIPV
# Test Name: Inhibition of CYP2C9
# Format: ADME
Overview of recorded INH for various compounds

>>> print(df.to_string())
                            chemical_smiles  reading
0  O=C1O[C@]2(CC[C@H](CNc3ccc(-c4ncccn4)cn3)CC2)CN1c1cccnn1  > 10 µM
1  O=C(Nc1nc(-c2ccccn2)cs1)N1CCC2(CC1)CN(c1ccccc1)C(=O)O2  > 10 µM
2  O=C1O[C@]2(CC[C@H](CNc3cnn(-c4ccccc4F)c3)CC2)CN1c1cncnc1  > 10 µM
3  O=C1O[C@]2(CC[C@H](CNc3ccc(-c4cc(F)cc(F)c4)nn3)CC2)CN1c1cccnn1     8 µM
4  Cc1ncccc1N1C[C@]2(CC[C@@H](CNc3cnn(-c4ccccc4F)c3)CC2)OC1=O  > 10 µM

Record request: INH value, item "O=C1O[C@]2(CC[C@H](CNc3cnn(-c4ccccc4F)c3)CC2)CN1c1cccnn1"
> 10 µM

Field request: INH | item: "O=C1O[C@]2(CC[C@H](CNc3cnn(-c4ccccc4F)c3)CC2)CN1c1cccnc1"
7 µM

Recorded INH for "O=C1O[C@]2(CC[C@H](CNc3cnn(-c4ccccc4F)c3)CC2)CN1c1ccnnc1" , please?
> 10 µM
